FYI, the data here is from PubChem BioAssay (NCI).

Tested on: T-47D breast
Test: NCI-60 one-dose screen, 48 h
Details: 10 µM unless noted
Procedure: Growth inhibition of the T-47D human tumor cell line is measured as a screen for anti-cancer activity. Cells are grown in 96 well plates and exposed to the test compound for 48 hours. Compounds are tested at a single concentration, which is 10^-5 M for most compounds. The reported endpoint is percent growth (GI% or GIPRCNT), where numbers from 0 - 100% represent growth inhibition, and numbers from -100% - 0 represent cell death. For example, a value of 40 represents 60% growth inhibition. […]
About 83,000 compounds went through this panel and 20% of them were active in at least one assay; those are over-represented in the sample as a whole. Calls of active or inactive are those of the source. Rule for the calls: active = growth percent below 10; inactive = the rest.
Use one of these outcomes when replying: active, inactive

[
  {
    "COMPOUND": "O=c1cc(-c2cccnc2)oc2c1ccc1ccccc12",
    "LABEL VALUE": "inactive"
  },
  {
    "COMPOUND": "O=C(Nc1ncc([N+](=O)[O-])s1)c1cccc([N+](=O)[O-])c1",
    "LABEL VALUE": "inactive"
  },
  {
    "COMPOUND": "C=C(C[C@](O)(C(=O)/C=C/c1ccc(Cl)cc1)C(=O)OC)c1ccccc1",
    "LABEL VALUE": "inactive"
  },
  {
    "COMPOUND": "N#CCCN(CCO)c1ccccc1",
    "LABEL VALUE": "inactive"
  },
  {
    "COMPOUND": "C/C(=C\\CCc1ccsc1)CC/C=C(\\C)CCCN1CCC(CO)CC1",
    "LABEL VALUE": "inactive"
  }
]

Dear all, I need the recorded test outcome for Nc1nc(Cl)c2[nH]cnc2n1 , thank you.
inactive

Dear all, I need the recorded test outcome for Clc1ncn[nH]1 , thank you.
inactive
